# Measurement description: HT29 colon tumor cell growth inhibition, primary screen, imaging, high content imaging, 48 h, CellTiter-Glo (AID 771)
# Experimental setup: HCS imaging cell count, at 10 µM, hits give high values
The campaign covered roughly 3,300 compounds. About 55 (2%) were called active. Shown is part of a subset that was picked to be rich in actives.
Give criterion met when the value for growth inhibition is at least 30%. Give criterion not met when it is less.

Consider the following illustrative entries.
CCN(CC)c1ccc2cc(C(=O)Nc3ccccn3)c(=O)oc2c1 = criterion not met
CNCCC=C1c2ccccc2CCc2ccccc21 = criterion met
CN(C)CC(O)COc1cccc(OCC(O)CN(C)C)c1 (stereo not given) = criterion not met
CCCc1nc(N2CCOCC2)c(C#N)c2c1CCCC2 = criterion not met
CCN(CC)c1ccc2cc(-c3nnc(-c4ccncc4)o3)c(=O)oc2c1 = criterion met
CNCCCC1c2ccccc2C=Cc2ccccc21 = criterion met
COC(=O)Nc1nc2ccc(C(=O)c3ccccc3)cc2[nH]1 = criterion met
CN(C)CC(O)COc1ccc(C(C)(C)c2ccc(OCC(O)CN(C)C)cc2)cc1 (stereo not given) = criterion met
CCc1[nH]nc2c1C(c1ccc(Br)s1)C(C#N)=C(N)O2 (stereo not given) = criterion met
CCN(CC)CCOC(=O)C1(c2ccc(OC)c(OC)c2)CCCC1 = criterion not met

INPUT: Evaluate C/C(=N/n1cnnc1)c1cccnc1 : growth inhibition at minimum 30%?
OUTPUT: criterion not met

INPUT: Do the same for C[C@]12CC[C@@H]3c4ccc(O[C@@H]5O[C@H](C(=O)O)[C@@H](O)[C@H](O)[C@H]5O)cc4CC[C@H]3[C@@H]1C[C@@H](O)[C@@H]2O please
OUTPUT: criterion not met

INPUT: Do the same for N#Cc1ccc(-c2ccc(OCC(O)Cn3nnc4ccccc43)cc2)cc1 (stereo not given) please
OUTPUT: criterion not met

INPUT: Do the same for Cc1ccc2nc(NCc3ccccc3)[nH]c2c1 please
OUTPUT: criterion met

INPUT: Do the same for CCN1CCN(c2nc3c(C)cccn3c(=O)c2/C=C(\C#N)S(=O)(=O)c2ccccc2)CC1 please
OUTPUT: criterion not met

INPUT: Do the same for CCOC(=O)c1[nH]c2ccc(F)cc2c1N=C(C)N(CC)CC please
OUTPUT: criterion not met

INPUT: Do the same for COC(=O)c1ccc(C2NC(C(=O)O)CS2)cc1 (stereo not given) please
OUTPUT: criterion not met

INPUT: Do the same for C[C@]12CC[C@@H]3c4ccc(OC(=O)c5ccccc5)cc4CC[C@H]3[C@@H]1CC[C@@H]2O please
OUTPUT: criterion met

INPUT: Do the same for COc1ccc([C@@H]2Sc3ccccc3N(CCN(C)C)C(=O)[C@@H]2OC(C)=O)cc1 please
OUTPUT: criterion not met

INPUT: Do the same for CCOc1c(C)cc2[nH]c(CCC(=O)O)nc2c1C please
OUTPUT: criterion not met

Attribution: PubChem BioAssay AID771
